Data provenance is patent US20160244497A1.

target: beta-klotho; assay: cell-based or functional assay
quantity.measured: EC50, ELK-luciferase assay (µM)
Output spec: scalar in µM, unitless text.

Guide cases for EC50, ELK-luciferase assay, answers given:
binder="PEGylated FGF21 mutant K69C (ligand, 20 kDa methoxy-PEG-maleimide on Cys 69) MHPIPDSSPLLQFGGQVRQRYLYTDDAQQTEAHLEIREDGTVGGAADQSPESLLQLKALKPGVIQILGVCTSRFLCQRPDGALYGSLHFDPEACSFRELLLEDGYNVYQSEAHGLPLHLPGNKSPHRDPAPRGPARFLPLPGLPPAPPEPPGILAPQPPDVGSSDPLSMVGPSQGRSPSYAS" quantity_measured="EC50, ELK-luciferase assay" output_unit=µM recorded_result=0.0053
binder="PEGylated FGF21 mutant D38C (ligand, 20 kDa methoxy-PEG-maleimide on Cys 38) MHPIPDSSPLLQFGGQVRQRYLYTDDAQQTEAHLEIRECGTVGGAADQSPESLLQLKALKPGVIQILGVKTSRFLCQRPDGALYGSLHFDPEACSFRELLLEDGYNVYQSEAHGLPLHLPGNKSPHRDPAPRGPARFLPLPGLPPAPPEPPGILAPQPPDVGSSDPLSMVGPSQGRSPSYAS" quantity_measured="EC50, ELK-luciferase assay" output_unit=µM recorded_result=0.0131

Then there is this binder:
In: Report EC50, ELK-luciferase assay for PEGylated FGF21 mutant Y179C (ligand, 20 kDa methoxy-PEG-maleimide on Cys 179) MHPIPDSSPLLQFGGQVRQRYLYTDDAQQTEAHLEIREDGTVGGAADQSPESLLQLKALKPGVIQILGVKTSRFLCQRPDGALYGSLHFDPEACSFRELLLEDGYNVYQSEAHGLPLHLPGNKSPHRDPAPRGPARFLPLPGLPPAPPEPPGILAPQPPDVGSSDPLSMVGPSQGRSPSCAS please.
Out: 0.287
